- Tested on: Bacillus subtilis
- METHOD_NOTES: cleaved RNA product abundance (RNA/gDNA barcode ratio) relative to median wild-type variant (ratio to wild type); higher = more accumulation of the downstream cleavage product
- CONDITIONS_USED: experiment (reporter, strain, medium): exp 2b: truncated aprE reporter, strain BJT200; cleavage site: cggR-gapA (positions -7 to +36 mutated)
Parameter cleaved RNA product abundance: see the listing below.
Number only, please.

{"QUERY_SEQUENCE": "ACAGACGAAGGAGCCGCAAAGAAGTTTTTAAGTGATGAATAATCCCTCAATATAAATATCTCTCACTTATTTAAA", "cleaved RNA product abundance": 0.117}
{"QUERY_SEQUENCE": "ACAGACGAAGGAGCCGCAAAGAAGTTATTAAGCGATGAATAATCCCTAAATATAAATATCTCTCACTTATTTAAA", "cleaved RNA product abundance": 0.132}
{"QUERY_SEQUENCE": "ACAGACGAAGGAGCCGCAAAGAAGTTATTAAGGAATGAATAAACCCTCAATATAAATATCTCTCACTTATTTAAA", "cleaved RNA product abundance": 0.0981}
{"QUERY_SEQUENCE": "ACAGACGAAGGAGCCGCATAGAAGTTACTAAGGGATGAATAATCCCTCAATATAAATATCTCTCACTTATTTAAA", "cleaved RNA product abundance": 0.24}

Incoming: Please give the measured cleaved RNA product abundance for this sequence: ACAGACGAAGGAGCCGCAAAAAAGTTATTAAGGGACGAATAATCCCTCAATATAAATATCTCTCACTTATTTAAA
Outgoing: 0.676

Incoming: # lookup: cleaved RNA product abundance of ACAGACGAAGGAGCCGCAAAGATGTTATTAAGGGATGAATAATCCCTCAATATAAATACCTCTCACTTATTTAAA
Outgoing: 0.71

Incoming: What cleaved RNA product abundance value was documented for this sequence, ACAGACGAAGGAGCCGCAAAGAACTTATTAAGGGATGAATAATCCCACAATATAAATATCTCTCACTTATTTAAA ?
Outgoing: 0.207

Incoming: Dear colleague, I am looking for the recorded cleaved RNA product abundance of the following sequence: ACAGACGAAGGAGCCGCAAAGTAGTTATTAATGGATGAATAATCCCTCAATATAAATATCTCTCACTTATTTAAA
Outgoing: 0.0916

Incoming: Suppose we examine the sequence ACAGACGAAGGAGCCGCAAAGAAGTTATTAATTGATGAATAATCCCTCAATATAAATATCTCTCACTTATTTAAA ; what cleaved RNA product abundance value has been reported?
Outgoing: 0.0997

----------
- Tested on: Bacillus subtilis
- METHOD_NOTES: cleaved RNA product abundance (RNA/gDNA barcode ratio) relative to median wild-type variant (ratio to wild type); higher = more accumulation of the downstream cleavage product
- CONDITIONS_USED: experiment (reporter, strain, medium): exp 8a: truncated aprE reporter, strain BJT201 with 2% xylose (RNase J1 expressed); cleavage site: glnRA (positions -5 to +31 mutated)
MEASURED_ENDPOINT: cleaved RNA product abundance
Give the figure only, with no unit attached.

Incoming: Recorded cleaved RNA product abundance for CGACATGTCCCGCTTCTTTCATTAATCCGTTAGCAACTATTTTGCTATATACATCTACCTTTTAAGAGGAGGAAT , please?
Outgoing: 0.944
